Reference for the values: patent US5397787A

# TEST_TARGET: p45 v-abl tyrosine kinase
# EXPERIMENTAL_PROTOCOL: Exogenous Substrate Kinase Assay: p45 v-abl kinase inhibition, (Val5)-Angiotensin II phosphorylation
# SETUP_CONDITIONS: (Val^5)-Angiotensin II 2 mM, ATP 50 μM, pH 8.0, 30° C., triplicate determinations
# Description: The enzyme used in our test was the p45 v-abl tyrosine kinase which represents the catalytic domain of the Abelson tyrosine kinase (isolated from the Abelson murine leukemia virus). […] After a brief incubation on ice, tubes were centrifuged. […] The radioactivity bound to dried phosphocellulose squares was measured in a liquid scintillation counter. IC50 values were calculated from triplicate determinations of each experimental point. […]
PROPERTY: IC50 (nM)
Report as a plain number; the unit nM is understood.

Reported IC50, compound O=C1Nc2ccccc2/C1=C/c1c[nH]c2ncccc12 [3-[(7-azaindol-3-yl)methylen]-2-oxindole] : ____ 50

Next:
Reported IC50, compound N#CC(=Cc1c[nH]c2ncccc12)C(N)=O [2-cyano-3-(7-azaindol-3-yl)acrylamide] : ____ 4700
